Molecular target: rat mGlu 1a receptor (Rattus norvegicus, UniProt P23385)
Construct: expressed in transfected cells; host or cells: EBNA cells (transient transfection)
Sequence (P23385 19-1199): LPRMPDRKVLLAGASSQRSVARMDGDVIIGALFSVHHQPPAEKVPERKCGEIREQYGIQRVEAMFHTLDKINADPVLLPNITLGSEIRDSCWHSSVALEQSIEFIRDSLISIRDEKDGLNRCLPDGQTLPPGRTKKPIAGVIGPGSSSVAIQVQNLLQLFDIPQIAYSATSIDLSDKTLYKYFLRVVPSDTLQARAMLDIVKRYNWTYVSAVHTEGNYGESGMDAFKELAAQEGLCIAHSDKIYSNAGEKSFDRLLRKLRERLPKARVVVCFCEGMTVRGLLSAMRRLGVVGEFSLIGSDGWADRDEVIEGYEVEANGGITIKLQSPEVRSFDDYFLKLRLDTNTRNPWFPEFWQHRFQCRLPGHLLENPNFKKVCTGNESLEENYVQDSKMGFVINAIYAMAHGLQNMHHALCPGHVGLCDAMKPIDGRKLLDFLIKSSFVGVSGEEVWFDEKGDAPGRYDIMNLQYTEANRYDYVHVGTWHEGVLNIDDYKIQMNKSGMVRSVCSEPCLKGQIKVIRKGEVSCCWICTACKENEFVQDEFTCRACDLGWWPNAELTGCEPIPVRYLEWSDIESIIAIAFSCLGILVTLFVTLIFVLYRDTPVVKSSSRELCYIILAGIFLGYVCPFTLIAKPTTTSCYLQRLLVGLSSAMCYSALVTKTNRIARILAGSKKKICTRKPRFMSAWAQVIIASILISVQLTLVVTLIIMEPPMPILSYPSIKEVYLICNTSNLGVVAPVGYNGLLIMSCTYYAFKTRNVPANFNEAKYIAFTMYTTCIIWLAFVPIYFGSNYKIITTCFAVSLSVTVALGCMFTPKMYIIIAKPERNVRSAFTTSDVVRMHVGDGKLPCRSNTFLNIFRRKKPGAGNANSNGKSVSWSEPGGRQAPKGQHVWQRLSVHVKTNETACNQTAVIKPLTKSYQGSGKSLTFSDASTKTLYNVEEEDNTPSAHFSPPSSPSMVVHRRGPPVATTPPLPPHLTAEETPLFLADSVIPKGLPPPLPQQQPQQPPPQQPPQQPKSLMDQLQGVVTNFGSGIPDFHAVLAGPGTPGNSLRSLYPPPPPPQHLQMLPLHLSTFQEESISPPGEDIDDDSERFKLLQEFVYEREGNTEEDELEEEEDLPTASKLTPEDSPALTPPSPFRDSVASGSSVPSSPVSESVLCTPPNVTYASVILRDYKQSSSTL
Test: [Ca2+]i measurements (FLIPR, Fluo-3 AM) on mGlu 1a transfected EBNA cells; agonist or antagonist (against 10 μM glutamate)
Assay type: cell-based
Details: table of substituents of the Examples, column Remarks
readout: Remarks (agonist / antagonist)

compound	Remarks (agonist / antagonist)
O=S(=O)(c1ccc(Cl)cc1)N1CCCC1c1ccc(Cl)cc1 (racemic) [Example 9]	Agonist
Cc1ccc(C2CCCN2S(=O)(=O)c2ccc(F)cc2)c(C)c1 (racemic) [Example 68]	Antagonist
CN(C)c1ccc(C2CCCN2S(=O)(=O)c2ccc(Cl)cc2)cc1Cl (racemic) [Example 45]	Antagonist
O=S(=O)(c1ccc(Cl)cc1)N1CCC[C@@H]1c1ccc(F)cc1 [Example 76]	Agonist
O=S(=O)(c1ccccc1)N1CCCC1c1ccc(C(F)(F)F)cc1 (racemic) [Example 75]	Antagonist

[Q] # get_value(readout='Remarks (agonist / antagonist)', item= Cc1ccc(S(=O)(=O)N2CCCC2c2ccccc2Cl)cc1 (racemic) [Example 51] )
[A] Antagonist

[Q] # get_value(readout='Remarks (agonist / antagonist)', item= O=S(=O)(c1ccc(C(F)(F)F)cc1)N1CCCC1c1ccc(F)cc1 (racemic) [Example 60] )
[A] Agonist
